Items are presented alongside their recorded IC50.
- target-under-test: CDK12/CyclinK (Homo sapiens)
- Sequence (Q9NYV4 whole entry): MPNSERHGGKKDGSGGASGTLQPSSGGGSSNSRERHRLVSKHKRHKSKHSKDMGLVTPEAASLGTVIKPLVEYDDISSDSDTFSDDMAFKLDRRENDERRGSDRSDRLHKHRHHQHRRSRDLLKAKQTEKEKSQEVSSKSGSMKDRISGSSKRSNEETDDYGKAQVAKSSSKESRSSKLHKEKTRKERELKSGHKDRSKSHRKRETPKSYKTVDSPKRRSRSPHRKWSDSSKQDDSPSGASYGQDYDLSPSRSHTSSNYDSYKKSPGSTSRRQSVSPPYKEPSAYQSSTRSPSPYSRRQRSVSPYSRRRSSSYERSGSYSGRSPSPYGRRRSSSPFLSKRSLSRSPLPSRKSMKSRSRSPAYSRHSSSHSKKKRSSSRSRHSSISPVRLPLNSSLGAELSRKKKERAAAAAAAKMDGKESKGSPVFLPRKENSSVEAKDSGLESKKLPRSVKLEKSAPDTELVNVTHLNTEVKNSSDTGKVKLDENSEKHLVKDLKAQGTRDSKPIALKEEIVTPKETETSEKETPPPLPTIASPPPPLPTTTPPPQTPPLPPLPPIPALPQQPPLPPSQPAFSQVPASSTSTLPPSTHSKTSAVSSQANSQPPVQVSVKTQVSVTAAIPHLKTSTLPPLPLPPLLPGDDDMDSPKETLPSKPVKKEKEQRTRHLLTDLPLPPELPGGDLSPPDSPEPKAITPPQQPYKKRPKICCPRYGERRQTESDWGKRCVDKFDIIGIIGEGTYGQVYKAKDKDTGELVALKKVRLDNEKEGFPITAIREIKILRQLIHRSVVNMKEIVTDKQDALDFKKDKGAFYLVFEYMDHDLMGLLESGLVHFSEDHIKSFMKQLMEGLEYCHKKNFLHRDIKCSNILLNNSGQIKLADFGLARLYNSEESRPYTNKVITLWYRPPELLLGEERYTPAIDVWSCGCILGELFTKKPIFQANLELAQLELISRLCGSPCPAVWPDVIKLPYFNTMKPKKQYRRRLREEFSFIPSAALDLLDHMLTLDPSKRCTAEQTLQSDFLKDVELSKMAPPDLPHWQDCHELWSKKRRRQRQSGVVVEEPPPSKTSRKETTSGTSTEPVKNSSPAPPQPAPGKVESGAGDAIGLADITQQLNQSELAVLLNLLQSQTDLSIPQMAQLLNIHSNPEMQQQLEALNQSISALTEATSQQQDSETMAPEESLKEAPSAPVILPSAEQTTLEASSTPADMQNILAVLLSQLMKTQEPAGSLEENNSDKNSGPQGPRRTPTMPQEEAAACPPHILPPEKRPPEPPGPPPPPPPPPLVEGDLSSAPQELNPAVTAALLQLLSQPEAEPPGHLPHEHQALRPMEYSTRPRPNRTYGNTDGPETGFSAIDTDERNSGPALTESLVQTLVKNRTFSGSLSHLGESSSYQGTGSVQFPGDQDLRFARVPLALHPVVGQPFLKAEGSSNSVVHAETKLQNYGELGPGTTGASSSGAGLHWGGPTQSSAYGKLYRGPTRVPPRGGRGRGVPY
- Sequence (O75909 whole entry partner): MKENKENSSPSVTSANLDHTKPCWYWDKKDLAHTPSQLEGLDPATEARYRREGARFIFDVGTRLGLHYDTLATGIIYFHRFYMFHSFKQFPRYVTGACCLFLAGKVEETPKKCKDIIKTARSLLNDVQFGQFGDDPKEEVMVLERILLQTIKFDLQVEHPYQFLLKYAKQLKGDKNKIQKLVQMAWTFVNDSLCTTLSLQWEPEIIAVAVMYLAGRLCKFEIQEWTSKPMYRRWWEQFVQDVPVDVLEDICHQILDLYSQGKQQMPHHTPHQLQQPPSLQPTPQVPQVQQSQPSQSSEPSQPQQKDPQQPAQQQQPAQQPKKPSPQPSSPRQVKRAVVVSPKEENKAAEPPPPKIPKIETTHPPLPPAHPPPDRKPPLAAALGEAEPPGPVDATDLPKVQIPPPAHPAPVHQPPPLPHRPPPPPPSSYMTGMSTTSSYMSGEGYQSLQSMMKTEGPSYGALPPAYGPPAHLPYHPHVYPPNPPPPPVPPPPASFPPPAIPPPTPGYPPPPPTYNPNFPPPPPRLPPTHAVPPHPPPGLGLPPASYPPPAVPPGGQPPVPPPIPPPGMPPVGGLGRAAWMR
- protocol-notes: In vitro CDK12/cyclinK kinase assay
- Assay type: biochemical
- Parameters: purchased Reaction Biology Corp. (CRO that ran the assay)
- experimental-context: Tables 1-4; read-out: CDK12/CyclinK (IC50/μM)
- Method: In vitro CDK12/cyclinK assays for all compounds and in vitro kinome-wide inhibition profiling of 30d at 10 μM were performed by a CRO company (Reaction Biology Corp., San Diego, CA, USA).

1. CC(C)n1cnc2c(NCc3ccc(-c4cccnc4)nc3)nc(-n3cc(CO)nn3)nc21 [Compound 26a] :: 2.05 µM

Suppose we examine the molecule CC(C)n1cnc2c(NCc3ccc(-c4cccnc4)nc3)nc(-c3ccc(N)cc3)nc21 [Compound 19c] ; what IC50 value has been reported?
0.15 µM

// lookup IC50 for CC(C)n1cnc2c(NCc3ccc(-c4cccnc4)nc3)nc(-c3ccc(NCCCO)cc3)nc21 [Compound 20d]
0.499 µM

So what's the measured IC50 for this one? CC(C)n1cnc2c(NCc3ccc(-c4cccnc4)nc3)nc(-c3ccn[nH]3)nc21 [Compound 18m]
0.501 µM

###

- target-under-test: CYP3A4 (Homo sapiens)
- Sequence (P08684 whole entry): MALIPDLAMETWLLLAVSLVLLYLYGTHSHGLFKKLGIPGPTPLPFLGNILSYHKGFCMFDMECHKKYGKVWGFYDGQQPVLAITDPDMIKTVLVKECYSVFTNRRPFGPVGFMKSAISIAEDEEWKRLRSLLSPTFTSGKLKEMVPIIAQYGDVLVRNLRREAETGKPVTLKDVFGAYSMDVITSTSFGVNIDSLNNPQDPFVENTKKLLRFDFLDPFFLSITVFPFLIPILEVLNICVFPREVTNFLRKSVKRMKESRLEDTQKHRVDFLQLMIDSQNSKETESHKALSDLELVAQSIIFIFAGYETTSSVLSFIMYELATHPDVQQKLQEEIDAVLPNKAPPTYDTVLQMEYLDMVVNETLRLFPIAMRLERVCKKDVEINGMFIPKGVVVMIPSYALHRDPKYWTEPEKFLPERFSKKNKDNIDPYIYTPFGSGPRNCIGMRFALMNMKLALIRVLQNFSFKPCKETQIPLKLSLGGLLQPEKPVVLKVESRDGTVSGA
- protocol-notes: CYP inhibition
- Format: in vitro ADME
outcome-measure: CYP % Activity at 10 μM 3A4

Take a look at these entries with their results.
1. CCn1cnc2c(NCc3ccc(-c4ccnc(C)c4)nc3)nc(-c3ccc(N)nc3)nc21 [Compound 30a] :: 38.9%
2. CCn1cnc2c(NCc3ccc(-c4ccnc(C)c4)nc3)nc(-c3cnc(N)nc3)nc21 [Compound 30b] :: 72.4%

Fill in: CYP % Activity at 10 μM 3A4 of CCn1cnc2c(NCc3ccc(-c4ccccn4)nc3)nc(-c3cnc(N)nc3)nc21 [Compound 30e] is ___
92.8%

Give the measured CYP % Activity at 10 μM 3A4 of CCn1cnc2c(NCc3ccc(-c4ccccn4)nc3)nc(-c3ccc(N)nc3)nc21 [Compound 30d] .
43.0%

// lookup CYP % Activity at 10 μM 3A4 for CCn1cnc2c(NCc3ccc(-c4ccnc(C)c4)nc3)nc(-c3cncnc3)nc21 [Compound 30c]
31.8%

###

- target-under-test: CYP2C19 (Homo sapiens, UniProt P33261)
- Sequence (P33261 whole entry): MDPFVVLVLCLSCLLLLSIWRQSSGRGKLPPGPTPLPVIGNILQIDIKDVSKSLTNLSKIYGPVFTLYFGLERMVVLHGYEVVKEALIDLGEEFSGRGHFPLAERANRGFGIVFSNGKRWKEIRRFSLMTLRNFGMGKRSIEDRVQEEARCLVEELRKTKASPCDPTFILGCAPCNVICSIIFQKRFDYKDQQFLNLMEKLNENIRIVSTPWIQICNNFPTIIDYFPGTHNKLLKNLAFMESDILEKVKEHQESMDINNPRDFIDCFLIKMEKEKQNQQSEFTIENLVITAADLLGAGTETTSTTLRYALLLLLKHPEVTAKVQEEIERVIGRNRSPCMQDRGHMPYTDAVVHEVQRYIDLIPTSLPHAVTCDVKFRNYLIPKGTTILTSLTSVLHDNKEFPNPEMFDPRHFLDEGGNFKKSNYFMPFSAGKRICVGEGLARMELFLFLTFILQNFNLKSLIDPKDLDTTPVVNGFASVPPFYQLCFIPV
- protocol-notes: CYP inhibition
- Type: in vitro ADME
Recorded measurements of CYP % Activity at 10 μM 2C19, one per entry
The answer is to be given in %; state only the numeric part.

1. CCn1cnc2c(NCc3ccc(-c4ccnc(C)c4)nc3)nc(-c3cnc(N)nc3)nc21 [Compound 30b] :: 75.4
2. CCn1cnc2c(NCc3ccc(-c4ccccn4)nc3)nc(-c3ccc(N)nc3)nc21 [Compound 30d] :: 68.1
3. CCn1cnc2c(NCc3ccc(-c4ccnc(C)c4)nc3)nc(-c3ccc(N)nc3)nc21 [Compound 30a] :: 76.8
4. CCn1cnc2c(NCc3ccc(-c4ccnc(C)c4)nc3)nc(-c3cncnc3)nc21 [Compound 30c] :: 73.9

CYP2C19 (Homo sapiens, UniProt P33261) / CYP % Activity at 10 μM 2C19 / CCn1cnc2c(NCc3ccc(-c4ccccn4)nc3)nc(-c3cnc(N)nc3)nc21 [Compound 30e] : value?
72.6

###

- protocol-notes: In vitro liver microsomal stability
- Type: in vitro ADME
- experimental-context: human, liver microsomes, pH 7.4, 30 m at 37 °C with NADPH regeneration system
Property: remaining at 30 min, 1 μM; scope: individual compounds
Express the result in % but write the number alone.

Consider the worked cases shown below.
1. CCn1cnc2c(NCc3ccc(-c4ccnc(C)c4)nc3)nc(-c3cnc(N)nc3)nc21 [Compound 30b] :: 40.6
2. CCn1cnc2c(NCc3ccc(-c4ccccn4)nc3)nc(-c3cnc(N)nc3)nc21 [Compound 30e] :: 100
3. CCn1cnc2c(NCc3ccc(-c4ccnc(C)c4)nc3)nc(-c3cncnc3)nc21 [Compound 30c] :: 27.3
4. CCn1cnc2c(NCc3ccc(-c4ccccn4)nc3)nc(-c3ccc(N)nc3)nc21 [Compound 30d] :: 64.8

Let us move to another entry and its remaining at 30 min, 1 μM.
Look up remaining at 30 min, 1 μM for this compound: CCn1cnc2c(NCc3ccc(-c4ccnc(C)c4)nc3)nc(-c3ccc(N)nc3)nc21 [Compound 30a]
32.2

The reported numbers originate from paper PMC9506414.
